- procedure-text: qHTS of pediatric cancer cell lines to identify multiple opportunities for drug repurposing: Primary screen for DAOY cells (AID 1347090); also: nearly all actives have a fitted effect of over 55% in size; also: potency is read from the fitted curve at half-maximal effect
- run-conditions: DAOY medulloblastoma viability, CellTiter-Glo luminescence, 48 h; series mostly up to 46 µM
- Description: Drug repurposing or repositioning has been offered as a strategy for drug development in oncology programs. […] [1] Shen, M et al. Quantitative high-throughput phenotypic screening of pediatric cancer cell lines identifies multiple opportunities for drug repurposing. […] Cells were assayed in growth media at a density of 500-1,000 cells/well. […] After a 15 min incubation at room temperature, samples were analyzed for luminescence intensity using a ViewLux High-throughput CCD imager equipped with clear filters.
Inconclusive results are not listed. Active and inactive are the calls of the source. Calls follow the shape of the dose curve; as a rule, active = well fitted cell-killing curve with a large enough effect; inconclusive = small, poorly fitted or top-dose-only effect; inactive = flat fitted curve, though single readings scatter.
assay-endpoint: Potency

Worked examples follow.
[
  {
    "compound": "Clc1ccc2nsnc2c1NC1=NCCN1",
    "Potency": "inactive"
  },
  {
    "compound": "CN(C)CCOC(c1ccccc1)c1ccccc1",
    "Potency": "inactive"
  },
  {
    "compound": "CCN1CCCC1CNC(=O)c1cc(S(=O)(=O)CC)c(N)cc1OC (stereo unspecified)",
    "Potency": "inactive"
  },
  {
    "compound": "C[C@@H]1CC(=O)NN=C1c1ccc(NN=C(C#N)C#N)cc1",
    "Potency": "26.6 µM (active)"
  },
  {
    "compound": "CC#C[C@]1(O)CC[C@H]2[C@@H]3CCC4=CC(=O)CCC4=C3[C@@H](c3ccc(N(C)C)cc3)C[C@@]21C",
    "Potency": "0.469 µM (active)"
  }
]

Q: Give Potency for the following compound: "Clc1ccc2c(c1)C(N1CCNCC1)=Nc1ccccc1O2"
A: inactive
